Biological target: human TOR (Homo sapiens, UniProt P42345)
Construct: FLAG
Test: mTOR enzyme assay (DELFIA, His6-S6K substrate)
Type: biochemical
Conditions: read-out: mTOR Kinase Avg. IC50
Quantity Name: IC50 (nM)
Give the number; nM is assumed, so skip it.

CCn1c(C)c(/C=C2\Oc3ccc(NC(=O)Nc4ccc(CCN(C)C)cc4)cc3C2=O)c2cc(OC)ccc21
133

Incoming: Quick check: IC50 of CNC(=O)Nc1ccc2c(c1)C(=O)/C(=C/c1c(-c3cnn(CC(C)C)c3)[nH]c3c(F)cc(OC)cc13)O2 ?
Outgoing: 7

Incoming: Quick check: IC50 of O=C1C(=Cc2c(-c3ccccc3)n(CC3CC3)c3ccccc23)Oc2cc(O)cc(O)c21 ?
Outgoing: 1450

Incoming: Quick check: IC50 of Cn1cc(/C=C2\Oc3cc(O)cc(O)c3C2=O)c2c(-c3ccc(C(=O)NCc4ccco4)cc3)cccc21 ?
Outgoing: 69.5

Incoming: Quick check: IC50 of COC(=O)c1ccc2[nH]cc(C=C3Oc4cc(O)cc(O)c4C3=O)c2c1 ?
Outgoing: 1700
